Entry source: the supplement of paper PMC10567573

B1: ANKRD40 (parent)
chain: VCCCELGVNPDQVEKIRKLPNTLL

# Variants of: B1
# protocol.description: protein stability index of a GFP-peptide fusion (GPS, HEK-293T) (PSI 1-6); higher = more stable;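 also: lentivirally expressed fusions sorted by FACS into six bins by GFP to DsRed ratio, PSI derived from sequencing read proportions per bin multiplied by bin number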
# condition.parameters: c terminus: a fixed tail appended
readout.name: protein stability index
Numbers only.

Take a look at these entries with their results.
>>> quantitative_result("N21T")
2.04
>>> quantitative_result("C4W")
1.98
>>> quantitative_result("D11C")
2.01
>>> quantitative_result("L6A")
2

[ask] What does the data say about its protein stability index? Entry: `C3L`
[reply] 2.03
